Biological target: recombinant human PKM2 (Homo sapiens)
Construct: His (N); purchased R&D Systems
Assay: Human PKM2 activation assay (Kinase-Glo Plus luminescent detection of generated ATP)
Assay type: biochemical
Details: recombinant human PKM2 activation; 4-parameter logistic fit; read-out: hPKM2 EC50
Quantity Name: EC50 (nM)

| Compound | EC50 [nM] |
| --- | --- |
| Cc1cc(F)c(Cn2ncc3cc(S(=O)(=O)c4cn[nH]c4)ccc3c2=O)nc1C [Example 321] | 73.4 |

(I) Cn1ccc(Cn2ncc3cc(S(=N)(=O)c4ccccc4)ccc3c2=O)n1 (stereo not shown) [Example 262]
(II) COCCn1ccc(S(=O)(=O)c2ccc3c(=O)n(Cc4ccc5c(n4)CCO5)ncc3c2)n1 [Example 360]
(III) COCCn1cc(S(=O)(=O)c2ccc3c(=O)n(Cc4cc[nH]n4)ncc3c2)cn1 [Example 281]
# ascending order, key=EC50 Would you mind listing the labels in the order asked for?
II, III, I

---

Target: recombinant human PKM2 (Homo sapiens, UniProt P14618)
Construct: His (N); purchased R&D Systems
Sequence (P14618 2-531 limits assumed): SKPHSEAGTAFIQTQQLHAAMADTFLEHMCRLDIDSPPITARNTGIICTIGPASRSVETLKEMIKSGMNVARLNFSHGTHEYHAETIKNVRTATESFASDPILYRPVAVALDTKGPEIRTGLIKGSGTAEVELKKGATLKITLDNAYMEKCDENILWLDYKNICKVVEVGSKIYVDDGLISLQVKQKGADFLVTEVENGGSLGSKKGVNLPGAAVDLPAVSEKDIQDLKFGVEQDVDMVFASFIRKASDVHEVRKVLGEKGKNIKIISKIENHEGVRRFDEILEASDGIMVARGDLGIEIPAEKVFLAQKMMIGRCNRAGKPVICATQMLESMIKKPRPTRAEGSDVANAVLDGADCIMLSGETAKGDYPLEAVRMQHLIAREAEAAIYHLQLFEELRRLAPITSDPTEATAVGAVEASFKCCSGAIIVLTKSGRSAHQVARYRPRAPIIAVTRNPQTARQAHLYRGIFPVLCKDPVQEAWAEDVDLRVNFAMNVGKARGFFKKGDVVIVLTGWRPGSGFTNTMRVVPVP
Assay: Human PKM2 activation assay (Kinase-Glo Plus luminescent detection of generated ATP)
Assay type: biochemical
Details: recombinant human PKM2 activation; 4-parameter logistic fit; read-out: hPKM2 EC50
pEC50: −log10 of the molar value.
Quantity Name: pEC50

For orientation, consider the following solved cases.
| Compound | pEC50 |
| --- | --- |
| COc1ccc(S(=O)(=O)c2ccc3c(=O)n(Cc4n[nH]c5ccccc45)ncc3c2)cc1 [Example 48] | 7.26 |
| Cc1cc(Cn2ncc3cc(S(=O)(=O)c4cnn(C(F)F)c4)ccc3c2=O)n[nH]1 [Example 315] | 6.62 |
| C[C@@H]1Cc2cc(S(=O)(=O)c3ccc4c(=O)n(Cc5ccn(C)n5)ncc4c3)ccc2O1 [Example 217] | 7.22 |

(I) COc1ccc(Cn2ncc3cc(S(=O)(=O)c4ccn5ccnc5c4)ccc3c2=O)cn1 [Example 184]
(II) Cn1cc(Cl)c(Cn2ncc3cc(S(=O)(=O)c4cn[nH]c4)ccc3c2=O)n1 [Example 308]
Determine, for I and II , which has the greater value of pEC50. Could you answer with the label of the item you picked?
II
(II: 6.84, I: 6.20)

(1) COc1ccc(Cn2ncc3cc(S(=O)(=O)c4ccccc4)ccc3c2=O)c(C(N)=O)n1 [Example 14]
(2) O=c1c2ccc(S(=O)(=O)c3ccccc3)cc2cnn1Cc1cc(F)[nH]n1 [Example 111]
Determine, for 1 and 2 , which has the greater value of pEC50. Could you answer with the label of the item you picked?
1

---

Target: recombinant human PKM2 (Homo sapiens)
Construct: His (N); purchased R&D Systems
Assay: Human PKM2 activation assay (Kinase-Glo Plus luminescent detection of generated ATP)
Type: biochemical
Settings: recombinant human PKM2 activation; 4-parameter logistic fit; read-out: hPKM2 EC50
Quantity Name: EC50 (nM)

For orientation, consider the following solved cases.
| Smiles Data | Study System | Unit Text | EC50 |
| --- | --- | --- | --- |
| COc1ccc(Cn2ncc3cc(S(=O)(=O)c4ccc(OC)nc4)ccc3c2=O)cn1 | recombinant human PKM2 (Homo sapiens) | nM | 71.2 |
| COc1ccc(S(=O)(=O)c2ccc3c(=O)n(Cc4cccn(CCO)c4=O)ncc3c2)cc1 | recombinant human PKM2 (Homo sapiens) | nM | 60.7 |
| Cn1ncc2cc(Cn3ncc4cc(S(=O)(=O)c5ccccc5)ccc4c3=O)ccc21 | recombinant human PKM2 (Homo sapiens) | nM | 207 |

(a) O=c1c2ccc(S(=O)(=O)c3ccccc3)cc2cnn1Cc1n[nH]cc1F
(b) Cc1c(Cl)c(Cn2ncc3cc(S(=O)(=O)c4cn[nH]c4)ccc3c2=O)nn1C
(c) Cc1cccc(Cn2ncc3cc(S(=O)(=O)c4cnn(C5CC5)c4)ccc3c2=O)n1
# ascending order, key=EC50 Would you mind listing the labels in the order asked for?
b, c, a
